Data provenance is patent US20250074920A1.

System: EGFR(T790M)
Test: KINOMEscan kinase binding assay
Conditions: at 1 μM
Procedure: Kinase binding assays were performed at Eurofins/DiscoveRx using the general KINOMEscan Protocol (Fabian, M. A. et al., “A small molecule-kinase interaction map for clinical kinase inhibitors,” Nat. Biotechnol. 2005, 23(3):329-36). […] The kinase concentration in the eluates was measured by qPCR. […] Dissociation constants (Kds) for test compound-kinase interactions were calculated by measuring the amount of kinase captured on the solid support as a function of the test compound concentration.
Entries annotated with measured % Ctrl
Give the number; % is assumed, so skip it.

Record excerpt, results attached:
1. Cc1cc2c([nH]1)/C=C1\C(=O)Nc3ccc(cc31)-c1c(nn(C)c1C)OCCCN(C)C2=O [Cpd. 1]: 88
2. Cc1cc2c([nH]1)/C=C1\C(=O)Nc3c(Cl)cc(cc31)-c1cn(C)nc1COC[C@@H](C)NC2=O [Cpd. 3]: 87
3. Cc1cc2c([nH]1)/C=C1\C(=O)Nc3ccc(cc31)-c1c(nn(C)c1C)COCCN(C)C2=O [Cpd. 2]: 85
4. C[C@@H]1COCc2nn(C)cc2-c2cc(Cl)c3c(c2)/C(=C/c2[nH]ccc2C(=O)N1)C(=O)N3 [Cpd. 4]: 90

Look up EGFR(T790M) data: % Ctrl of Cc1cc2c([nH]1)/C=C1\C(=O)Nc3c(Cl)cc(cc31)-c1cn(C)nc1COC[C@@H](C)N(C)C2=O [Cpd. 5] , then report it.
80

###

test system: FGFR3(G697C); assay: KINOMEscan kinase binding assay; settings: at 1 μM
Entries annotated with measured % Ctrl
Give the number; % is assumed, so skip it.

Record excerpt, results attached:
1) Cc1cc2c([nH]1)/C=C1\C(=O)Nc3c(Cl)cc(cc31)-c1cn(C)nc1COC[C@@H](C)N(C)C2=O: 93
2) Cc1cc2c([nH]1)/C=C1\C(=O)Nc3ccc(cc31)-c1c(nn(C)c1C)OCCCN(C)C2=O: 100

Let me know recorded % Ctrl for C[C@@H]1COCc2nn(C)cc2-c2cc(Cl)c3c(c2)/C(=C/c2[nH]ccc2C(=O)N1)C(=O)N3 , thanks.
79

Let me know recorded % Ctrl for Cc1cc2c([nH]1)/C=C1\C(=O)Nc3ccc(cc31)-c1c(nn(C)c1C)COCCN(C)C2=O , thanks.
93

Let me know recorded % Ctrl for Cc1cc2c([nH]1)/C=C1\C(=O)Nc3c(Cl)cc(cc31)-c1cn(C)nc1COC[C@@H](C)NC2=O , thanks.
89

###

Entries annotated with measured pKd
target: JAK1(JH2domain-pseudokinase); test: KINOMEscan kinase binding assay; settings: read-out: JAK1(JH2 domain-pseudokinase) Kd
Scale: negative log10 of molar concentration, which is what pKd denotes.

Record excerpt, results attached:
1. Cc1cc2c([nH]1)/C=C1\C(=O)Nc3c(Cl)cc(cc31)-c1cn(C)nc1COC[C@@H](C)N(C)C2=O: 7.30
2. Cc1cc2c([nH]1)/C=C1\C(=O)Nc3c(Cl)cc(cc31)-c1cn(C)nc1COC[C@@H](C)NC2=O: 6.92
3. Cc1cc2c([nH]1)/C=C1\C(=O)Nc3c(Cl)cc(cc31)-c1[nH]c(C)nc1COC[C@@H](C)N(C)C2=O: 6.89
4. Cc1cc2c([nH]1)/C=C1\C(=O)Nc3c(Cl)cc(cc31)-c1cn(C)nc1COC[C@H](C)N(C)C2=O: 6.80

Look up JAK1(JH2domain-pseudokinase) data: pKd of C[C@@H]1COCc2nn(C)cc2-c2cc(Cl)c3c(c2)/C(=C/c2[nH]ccc2C(=O)N1)C(=O)N3 , then report it.
7.54

###

system: EPHA3; test: KINOMEscan kinase binding assay; details: at 1 μM
Condition met if % Ctrl is below 80%. Condition not met if not; exact matches included in Condition not met.

These solved cases illustrate the format of a correct answer.
1. Cc1cc2c([nH]1)/C=C1\C(=O)Nc3ccc(cc31)-c1c(nn(C)c1C)OCCCN(C)C2=O: Condition not met
2. Cc1cc2c([nH]1)/C=C1\C(=O)Nc3c(Cl)cc(cc31)-c1cn(C)nc1COC[C@@H](C)NC2=O: Condition met
3. C[C@@H]1COCc2nn(C)cc2-c2cc(Cl)c3c(c2)/C(=C/c2[nH]ccc2C(=O)N1)C(=O)N3: Condition not met

Pending molecule:
Below 80% on % Ctrl? Entry Cc1cc2c([nH]1)/C=C1\C(=O)Nc3ccc(cc31)-c1c(nn(C)c1C)COCCN(C)C2=O
Condition not met

###

system: TXK; assay: KINOMEscan kinase binding assay; details: at 1 μM
Entries annotated with measured % Ctrl
# number then unit; no other words

Record excerpt, results attached:
1) Cc1cc2c([nH]1)/C=C1\C(=O)Nc3c(Cl)cc(cc31)-c1cn(C)nc1COC[C@@H](C)NC2=O [Cpd. 3]: 91%
2) C[C@@H]1COCc2nn(C)cc2-c2cc(Cl)c3c(c2)/C(=C/c2[nH]ccc2C(=O)N1)C(=O)N3 [Cpd. 4]: 78%
3) Cc1cc2c([nH]1)/C=C1\C(=O)Nc3c(Cl)cc(cc31)-c1cn(C)nc1COC[C@@H](C)N(C)C2=O [Cpd. 5]: 94%
4) Cc1cc2c([nH]1)/C=C1\C(=O)Nc3ccc(cc31)-c1c(nn(C)c1C)OCCCN(C)C2=O [Cpd. 1]: 100%

Now look at this one.
Let me know recorded % Ctrl for Cc1cc2c([nH]1)/C=C1\C(=O)Nc3ccc(cc31)-c1c(nn(C)c1C)COCCN(C)C2=O [Cpd. 2] , thanks.
100%

###

tested on: EPHA1; assay: KINOMEscan kinase binding assay; details: at 1 μM
Entries annotated with measured % Ctrl
Give the number; % is assumed, so skip it.

Record excerpt, results attached:
1. Cc1cc2c([nH]1)/C=C1\C(=O)Nc3ccc(cc31)-c1c(nn(C)c1C)OCCCN(C)C2=O [Cpd. 1]: 100
2. C[C@@H]1COCc2nn(C)cc2-c2cc(Cl)c3c(c2)/C(=C/c2[nH]ccc2C(=O)N1)C(=O)N3 [Cpd. 4]: 71
3. Cc1cc2c([nH]1)/C=C1\C(=O)Nc3c(Cl)cc(cc31)-c1cn(C)nc1COC[C@@H](C)NC2=O [Cpd. 3]: 85
4. Cc1cc2c([nH]1)/C=C1\C(=O)Nc3ccc(cc31)-c1c(nn(C)c1C)COCCN(C)C2=O [Cpd. 2]: 100

Now look at this one.
Let me know recorded % Ctrl for Cc1cc2c([nH]1)/C=C1\C(=O)Nc3c(Cl)cc(cc31)-c1cn(C)nc1COC[C@@H](C)N(C)C2=O [Cpd. 5] , thanks.
82

###

Entries annotated with measured % Ctrl
system: ABL2; assay: KINOMEscan kinase binding assay; details: at 1 μM
Give the number; % is assumed, so skip it.

Record excerpt, results attached:
1) Cc1cc2c([nH]1)/C=C1\C(=O)Nc3c(Cl)cc(cc31)-c1cn(C)nc1COC[C@@H](C)N(C)C2=O: 96
2) Cc1cc2c([nH]1)/C=C1\C(=O)Nc3ccc(cc31)-c1c(nn(C)c1C)OCCCN(C)C2=O: 87
3) C[C@@H]1COCc2nn(C)cc2-c2cc(Cl)c3c(c2)/C(=C/c2[nH]ccc2C(=O)N1)C(=O)N3: 97
4) Cc1cc2c([nH]1)/C=C1\C(=O)Nc3ccc(cc31)-c1c(nn(C)c1C)COCCN(C)C2=O: 96

Let me know recorded % Ctrl for Cc1cc2c([nH]1)/C=C1\C(=O)Nc3c(Cl)cc(cc31)-c1cn(C)nc1COC[C@@H](C)NC2=O , thanks.
97

###

test system: FGFR4; assay: KINOMEscan kinase binding assay; conditions: at 1 μM
outcomeMeasure: % Ctrl
# number then unit; no other words

1) Cc1cc2c([nH]1)/C=C1\C(=O)Nc3ccc(cc31)-c1c(nn(C)c1C)COCCN(C)C2=O [Cpd. 2]: 100%
2) Cc1cc2c([nH]1)/C=C1\C(=O)Nc3c(Cl)cc(cc31)-c1cn(C)nc1COC[C@@H](C)N(C)C2=O [Cpd. 5]: 88%
3) Cc1cc2c([nH]1)/C=C1\C(=O)Nc3ccc(cc31)-c1c(nn(C)c1C)OCCCN(C)C2=O [Cpd. 1]: 95%

Let me know recorded % Ctrl for C[C@@H]1COCc2nn(C)cc2-c2cc(Cl)c3c(c2)/C(=C/c2[nH]ccc2C(=O)N1)C(=O)N3 [Cpd. 4] , thanks.
88%

Let me know recorded % Ctrl for Cc1cc2c([nH]1)/C=C1\C(=O)Nc3c(Cl)cc(cc31)-c1cn(C)nc1COC[C@@H](C)NC2=O [Cpd. 3] , thanks.
92%
